Provide the reported half-life of each item.
# experiment summary: In vivo pharmacokinetics in plasma after oral gavage (PO) in male CD-1 mice
# condition notes: mouse; single PO dose 5 mg/kg, male CD-1 mice, plasma; read-out: t½ (converted)
Numbers only, in h.

Some solved cases for reference:
>>> observed("Cc1cnc(NS(C)(=O)=O)nc1COc1ccc(C(C)(C)c2cc(Cl)c(OCCCl)c(C#N)c2)cc1")
1.1
>>> observed("CC(Oc1ccc(C(C)(C)c2cc(Cl)c(OCCCl)c(Cl)c2)cc1)c1ocnc1S(C)(=O)=O (stereo not shown)")
4
>>> observed("Cc1cc(C(C)(C)c2ccc(OCc3ocnc3S(C)(=O)=O)cc2)cc(C#N)c1OCCCl")
2.5

# context switch: different compound, same half-life
Quick one: half-life of "CC(C)(c1ccc(OCc2ccnc(NS(C)(=O)=O)n2)cc1)c1cc(Cl)c(OCCCl)c(C#N)c1" ?
8.1

====

# experiment summary: Microsomal stability assay, human liver microsomes
# Format: in vitro ADME
# condition notes: pH 7.4, read-out: Liver microsome T½ (min) Human
Provide the reported half-life at 1 μM of each item.

Some solved cases for reference:
>>> observed("CC(C)(c1ccc(OCc2ccnc(NS(C)(=O)=O)n2)cc1)c1cc(Cl)c(OCCCl)c(Cl)c1 [Compound A74]")
"> 120 min"
>>> observed("CC(C)(c1ccc(OCc2ocnc2S(C)(=O)=O)cc1)c1cc(Cl)c(OCCCl)c(Cl)c1 [Compound A13]")
"> 120 min"
>>> observed("CC(C)(c1ccc(OCc2ncc(S(C)(=O)=O)s2)cc1)c1cc(Cl)c(OCCCl)c(C#N)c1 [Compound A93]")
"> 120 min"

# context switch: different compound, same half-life at 1 μM
Quick one: half-life at 1 μM of CC(C)(c1ccc(OC[C@H](O)CNS(C)(=O)=O)cc1)c1cc(Cl)c(OC[C@H](O)CCl)c(Cl)c1 [X, reference compound] ?
> 120 min

====

Provide the reported microsomal CLint at 1 μM of each item.
# experiment summary: Microsomal stability assay, human liver microsomes
# Assay type: in vitro ADME
# condition notes: pH 7.4, 1 μM compound, 0.5 mg/mL protein, 37° C., read-out: HLM +/− NADPH: Clint (μL/min/mg protein)

Some solved cases for reference:
>>> observed("CC(C)(c1ccc(-n2cnc(CNS(C)(=O)=O)c2)cc1)c1cc(Cl)c(OCCCl)c(Cl)c1")
"< 12 µL/min/mg"
>>> observed("CC(C)S(=O)(=O)Nc1nc(COc2ccc(C(C)(C)c3cc(Cl)c(OCCCl)c(C#N)c3)cc2)co1")
"< 12 µL/min/mg"

Would you mind listing microsomal CLint at 1 μM for each of the following molecules?
1. CN1C(=O)N(Cc2ccc(C(C)(C)c3cc(Cl)c(OCCCCl)c(Cl)c3)cc2)C(=O)C1(C)C
2. CC(C)(c1ccc(OCc2ncncc2NS(C)(=O)=O)cc1)c1cc(Cl)c(OCCCl)c(Cl)c1
3. Cc1cc(C(C)(C)c2ccc(OC(C)c3ocnc3S(C)(=O)=O)cc2)cc(C#N)c1OCCCl (stereo not drawn)
4. CC(Oc1ccc(C(C)(C)c2cc(Cl)c(OCCCl)c(C#N)c2)cc1)c1ccnc(S(C)(=O)=O)n1 (stereo not drawn)
5. Cc1cc(C(C)(C)c2ccc(OC(C)c3scnc3S(C)(=O)=O)cc2)cc(C#N)c1OCCCl (stereo not drawn)
6. CC(C)(c1ccc(OCc2ccnc(NS(C)(=O)=O)n2)cc1)c1cc(Cl)c(OCCCl)c(C#N)c1

1. 12 to 48 µL/min/mg
2. ≥ 48 µL/min/mg
3. ≥ 48 µL/min/mg
4. 12 to 48 µL/min/mg
5. 12 to 48 µL/min/mg
6. < 12 µL/min/mg

====

# experiment summary: Microsomal stability assay, mouse liver microsomes
# Assay type: in vitro ADME
# condition notes: mouse, liver microsomes, pH 7.4, mouse liver microsomes, 1 μM compound, 0.5 mg/mL protein, 37° C.; read-out: MLM +30/− NADPH: Clint (μL/min/mg protein)
result type: microsomal CLint at 1 μM

Some solved cases for reference:
>>> observed("CC(C)(c1ccc(OCc2nc(NS(C)(=O)=O)nc3c2CCC3)cc1)c1cc(Cl)c(OCCCl)c(C#N)c1")
"≥ 48 µL/min/mg"
>>> observed("CC(Oc1ccc(C(C)(C)c2cc(Cl)c(OCCCl)c(C#N)c2)cc1)c1coc(NS(C)(=O)=O)n1 (stereo not drawn)")
"< 12 µL/min/mg"
>>> observed("CC(C)(c1ccc(OCc2ccnc(C#N)n2)cc1)c1cc(Cl)c(OCCCl)c(C#N)c1")
"< 12 µL/min/mg"

Would you mind listing microsomal CLint at 1 μM for each of the following compounds?
1. CC(Oc1ccc(C(C)(C)c2cc(Cl)c(OCCCl)c(C#N)c2)cc1)c1ccnc(NS(C)(=O)=O)n1 (stereo not drawn)
2. Cc1cc(C(C)(C)c2ccc(OCc3ocnc3S(C)(=O)=O)cc2)cc(C#N)c1OCCCl
3. CC(C)(c1ccc(OCc2cnc(C#N)o2)cc1)c1cc(Cl)c(OCCCl)c(C#N)c1
4. CC(C)(c1ccc(OCc2cnc(S(C)(=O)=O)s2)cc1)c1cc(Cl)c(OCCCl)c(C#N)c1
5. CC(C)(c1ccc(OCc2cnc(NS(C)(=O)=O)nc2)cc1)c1cc(Cl)c(OCCCl)c(C#N)c1

< 12 µL/min/mg
12 to 48 µL/min/mg
12 to 48 µL/min/mg
< 12 µL/min/mg
< 12 µL/min/mg

Would you mind listing microsomal CLint at 1 μM for each of the following compounds?
1. Cn1c(COc2ccc(C(C)(C)c3cc(Cl)c(OCCCl)c(Cl)c3)cc2)cnc1S(C)(=O)=O
2. CC(C)(c1ccc(OCc2ccnc(NS(C)(=O)=O)c2)cc1)c1cc(Cl)c(OCCCl)c(C#N)c1

< 12 µL/min/mg
< 12 µL/min/mg

====

Provide the reported IC50 of each item.
# study target: LBD of androgen receptor (AR) fused to DBD of GAL4 (Homo sapiens)
# Sequence (P10275 669-900 limits assumed): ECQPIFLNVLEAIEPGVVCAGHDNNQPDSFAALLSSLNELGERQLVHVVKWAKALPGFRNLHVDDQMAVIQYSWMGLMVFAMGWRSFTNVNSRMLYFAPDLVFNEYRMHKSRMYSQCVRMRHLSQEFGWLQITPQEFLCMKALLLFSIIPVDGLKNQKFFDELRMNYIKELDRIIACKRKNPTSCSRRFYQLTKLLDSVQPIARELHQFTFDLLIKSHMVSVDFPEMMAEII
# experiment summary: LBD-expressing reporter assay (GeneBLAzer), AR LBD
# Assay type: cell-based
# condition notes: inhibition of maximal activity attained with agonist; read-out: Steroid Receptor LBD IC50 (μM) AR

>>> observed("CC(C)(c1ccc(OCc2ccnc(NS(C)(=O)=O)n2)cc1)c1cc(Cl)c(OCCCl)c(C#N)c1")
"> 10 µM"

Would you mind listing IC50 for each of the following compounds?
1. CC(C)(c1ccc(OCc2ccnc(NS(C)(=O)=O)n2)cc1)c1cc(Cl)c(OCCCl)c(Cl)c1
2. CC(C)(c1ccc(OC[C@H](O)CNS(C)(=O)=O)cc1)c1cc(Cl)c(OC[C@H](O)CCl)c(Cl)c1 [X, reference compound]

> 10 µM
9.83 µM

====

# experiment summary: Hepatocyte stability assay, mouse hepatocytes
# Assay type: in vitro ADME
# condition notes: mouse, cryopreserved hepatocytes, 1 μM compound, 0.5 million cells/mL, 37° C., read-out: MH +/− NADPH: Clint (μL/min/million cells)
# Description: The […] of in vitro intrinsic clearance (Clint) for drug candidates in the early discovery stage is common practice in the pharmaceutical industry. […] Metabolic stability of testing compound were be evaluated using human and mouse hepatocytes and can also be use rat, mouse, or other animal hepatocytes to predict intrinsic clearance. […] Cell density was counted by a hemacytometer. […]
Provide the reported hepatocyte CLint at 1 μM of each item.

Would you mind listing hepatocyte CLint at 1 μM for each of the following molecules?
1. CC(C)(c1ccc(OCc2nc(C(N)=O)cs2)cc1)c1cc(Cl)c(OCCCl)c(C#N)c1
2. CC(C)(c1ccc(OCc2ocnc2S(C)(=O)=O)cc1)c1cc(Cl)c(OCC(Cl)CO)c(Cl)c1 (stereo not drawn)
3. CC(=O)Nc1nccc(COc2ccc(C(C)(C)c3cc(C)c(OCCCl)c(C#N)c3)cc2)n1
4. CSc1ncc(COc2ccc(C(C)(C)c3cc(Cl)c(OCCCl)c(Cl)c3)cc2)o1
5. CC(Oc1ccc(C(C)(C)c2cc(Cl)c(OCCCl)c(C#N)c2)cc1)c1cnc(NS(C)(=O)=O)o1 (stereo not drawn)
6. Cc1cc(C(C)(C)c2ccc(OC(C)c3ncc(S(C)(=O)=O)o3)cc2)cc(C#N)c1OCCCl (stereo not drawn)
7. CC(C)(c1ccc(OCc2cnc(Cl)o2)cc1)c1cc(Cl)c(OCCCl)c(C#N)c1
8. CC(C)(c1ccc(OCc2ccnc(S(C)(=O)=O)n2)cc1)c1cc(Cl)c(OCCCl)c(C#N)c1

1: 4 to 18 µL/min/1e6 cells; 2: ≥ 18 µL/min/1e6 cells; 3: ≥ 18 µL/min/1e6 cells; 4: 4 to 18 µL/min/1e6 cells; 5: ≥ 18 µL/min/1e6 cells; 6: ≥ 18 µL/min/1e6 cells; 7: ≥ 18 µL/min/1e6 cells; 8: ≥ 18 µL/min/1e6 cells
